# maps each entry to its kon
- measurement target: T1, monovalent hVISTA-ECD (human VISTA extracellular domain with His tail) (human, UniProt Q9H7M9 33-193)
- T1 construct: analyte flowed over captured antibody; also called huVISTA-His
- T1 sequence (Q9H7M9 other isoform, or with tags, fused parts or gaps limits assumed): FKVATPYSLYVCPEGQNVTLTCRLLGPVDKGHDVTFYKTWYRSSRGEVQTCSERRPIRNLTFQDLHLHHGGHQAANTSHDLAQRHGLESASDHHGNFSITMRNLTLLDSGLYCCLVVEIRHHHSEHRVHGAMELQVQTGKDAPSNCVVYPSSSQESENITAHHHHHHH
- procedure text: SPR, pH 7.4
Report only the number, with the unit M⁻¹ s⁻¹ understood.

- binder: "P1-065064 (41F11_LC_Mutant: V29D/A64G/R91T) (antibody, V domains shown, Same printed description as P1-063001 under another ID; also called P1-065064-1) VH: QVQLVESGGGLVKPGGSLRLSCAASGFTFSDYYMSWIRQAPGKGLEWVSYISNSGSPIYYADSVKGRFTISRDNAKNSLYLQMNSLRAEDTAVYYCARDLPGWYFDLWGRGTLVTVSS VL: EIVLTQSPATLSLSPGERATLSCRASQSDSSYLAWYQQKPGQAPRLLIYDASNRATGIPARFSGSGSGTDFTLTISSLEPEDFAVYYCQQTNNWPRTFGQGTKVEIK"
  reported property: "kon"
  value: 330000

### Prompt Please give measured kon of the following entry: P1-065326 (41F11_VH_D31E/Y50W/S55E/L96E/Y100E VK_A64G) (antibody, V domains shown, Kabat positions; also called P1-065326-1) VH: QVQLVESGGGLVKPGGSLRLSCAASGFTFSEYYMSWIRQAPGKGLEWVSWISNSGEPIYYADSVKGRFTISRDNAKNSLYLQMNSLRAEDTAVYYCARDEPGWEFDLWGRGTLVTVSS VL: EIVLTQSPATLSLSPGERATLSCRASQSVSSYLAWYQQKPGQAPRLLIYDASNRATGIPARFSGSGSGTDFTLTISSLEPEDFAVYYCQQRNNWPRTFGQGTKVEIK
### Response 440000
